- Tested on: MCF7
- assay-info: Growth inhibition of human MCF7 after 48 hrs by sulforhodamine B method
- Type: functional, cell-based
- test-parameters: MCF7, 48 h
reported-metric: GI50 (µg/mL)
Could you give me the number in µg/mL? Just the number is fine.

Task: Return reported GI50; argument: `COc1ccc(/C=C\c2cc(OC)c3c(c2)OCO3)cc1NC(=O)[C@H](C)[C@@H](OC)[C@@H]1CCCN1.O=C(O)C(F)(F)F`
Output: 0.07

Task: Return reported GI50; argument: `COc1ccc(/C=C\c2cc(OC)c3c(c2)OCO3)cc1NC(=O)[C@H](CC(=O)OC(C)(C)C)NC(=O)OC(C)(C)C`
Output: 3

Task: Return reported GI50; argument: `CC[C@H](C)[C@@H]([C@@H](CC(=O)N1CCC[C@H]1[C@H](OC)[C@@H](C)C(=O)Nc1cc(/C=C\c2cc(OC)c3c(c2)OCO3)ccc1OC)OC)N(C)C(=O)[C@@H](NC(=O)[C@H](C(C)C)N(C)C)C(C)C`
Output: 0.032

Task: Return reported GI50; argument: `COc1ccc(/C=C\c2cc(OC)c3c(c2)OCO3)cc1NC(=O)[C@@H](N)CC(=O)[O-].[Na+]`
Output: 0.51

* * *

- Species on record: Bos taurus
- assay-info: Displacement of [3H]vinblastine from bovine tubulin at 10 uM
reported-metric: Activity (%)
Could you give me the number in %? Just the number is fine.

Task: Return reported Activity; argument: `COc1ccc(/C=C\c2cc(OC)c3c(c2)OCO3)cc1N`
Output: 0

Task: Return reported Activity; argument: `CC[C@H](C)[C@@H]([C@@H](CC(=O)N1CCC[C@H]1[C@H](OC)[C@@H](C)C(=O)N[C@@H](Cc1ccccc1)c1nccs1)OC)N(C)C(=O)[C@@H](NC(=O)[C@H](C(C)C)N(C)C)C(C)C`
Output: 96

Task: Return reported Activity; argument: `COc1ccc(/C=C\c2cc(OC)c(OC)c(OC)c2)cc1O`
Output: 0

Task: Return reported Activity; argument: `CC[C@H](C)[C@@H]([C@@H](CC(=O)N1CCC[C@H]1[C@H](OC)[C@@H](C)C(=O)Nc1cc(/C=C\c2cc(OC)c3c(c2)OCO3)ccc1OC)OC)N(C)C(=O)[C@@H](NC(=O)[C@H](C(C)C)N(C)C)C(C)C`
Output: 48

* * *

Consider the following compounds; for each one, report its Activity.
- Species: Bos taurus
- assay-info: Displacement of [3H]vinblastine from bovine tubulin at 80 uM
Could you give me the number in %? Just the number is fine.

Task: Return reported Activity; argument: `COc1ccc(/C=C\c2cc(OC)c3c(c2)OCO3)cc1N`
Output: 0

Task: Return reported Activity; argument: `CC[C@H](C)[C@@H]([C@@H](CC(=O)N1CCC[C@H]1[C@H](OC)[C@@H](C)C(=O)O)OC)N(C)C(=O)[C@@H](NC(=O)[C@H](C(C)C)N(C)C)C(C)C`
Output: 87

Task: Return reported Activity; argument: `CC[C@H](C)[C@@H]([C@@H](CC(=O)N1CCC[C@H]1[C@H](OC)[C@@H](C)C(=O)Nc1cc(/C=C\c2cc(OC)c3c(c2)OCO3)ccc1OC)OC)N(C)C(=O)[C@@H](NC(=O)[C@H](C(C)C)N(C)C)C(C)C`
Output: 87

Task: Return reported Activity; argument: `COc1ccc(/C=C\c2cc(OC)c(OC)c(OC)c2)cc1O`
Output: 0

* * *

- Test system: MCF7
- assay-info: Growth inhibition of human MCF7 after 48 hrs by sulforhodamine B method
- Format: functional, cell-based
- test-parameters: MCF7, 48 h
Consider the following molecules; for each one, report its GI50.
Could you give me the number in µg/mL? Just the number is fine.

Task: Return reported GI50; argument: `COc1ccc(/C=C\c2cc(OC)c3c(c2)OCO3)cc1NC(=O)[C@H](C)[C@@H](OC)[C@@H]1CCCN1C(=O)OC(C)(C)C`
Output: 0.38

Task: Return reported GI50; argument: `COc1ccc(/C=C\c2cc(OC)c3c(c2)OCO3)cc1NC(=O)[C@H](Cc1ccc(OP(=O)([O-])O)cc1)NP(=O)(O)O.[Na+]`
Output: 1.3

Task: Return reported GI50; argument: `COc1ccc(/C=C\c2cc(OC)c3c(c2)OCO3)cc1NC(=O)[C@H](Cc1ccc(OC(C)(C)C)cc1)NC(=O)OCc1ccccc1`
Output: 0.36

Task: Return reported GI50; argument: `COc1ccc(/C=C\c2cc(OC)c3c(c2)OCO3)cc1NC(=O)[C@@H](N)Cc1ccc(O)cc1.Cl`
Output: 0.041
